The measured values listed here are drawn from the Human Domainome abundance scans (Beltran et al. 2025).

B1: Receptor-interacting serine/threonine-protein kinase 2, residues 438 to 518; numbered along this chain, O43353 (parent)
chain: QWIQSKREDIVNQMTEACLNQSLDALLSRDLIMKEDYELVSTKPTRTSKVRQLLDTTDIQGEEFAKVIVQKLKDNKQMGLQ

- Variants of: B1
- assay-details: abundance fitness (aPCA) (normalised: wild type 0, dead -1); higher = more abundant; growth selection in yeast, the domain comes from the species named
- conditions: Homo sapiens
result-type: abundance fitness

> print(dat)
    variant.notation  reported.value
 1              K76Q          -0.032
 2              L72N          -0.043
 3              E38Q          -0.165
 4              E63G          -0.475
 5              N75G          -0.241
 6              Q60G          -0.014
 7              K49E          -0.576
 8              E35W          -0.252
 9              Q70E            0.08
10              K71V           0.151
11              Y37Q          -0.547
12              G61R          -0.155
13              K34P           0.024
14              K71E           -0.21
15              A65Y          -0.691
16              T45I           -0.87
17              V40W           -1.04
18              M33C           0.115
19              S28Q           0.041
20              L23T          -0.368
21              Q21W           -1.07
22              L53T          -0.417
23              I59G           0.143
24              L53V           -0.56
25              T45A          -0.476
26              D30R          -0.036
27              V40A          -0.528
28              Q60T          -0.412
29              E62V          -0.853
30              L72H          -0.741
31              L23R          -0.695
32              E38W           -0.12
33              D74K          -0.644
34              A65N          -0.389
35              A25S          -0.233
36              T45V           -0.56
37              K73Q          -0.003
38              R51S          -0.194
39              M33K          -0.088
40              I68V          -0.147
41              V50Y          -0.761
42              A65G            -0.6
43              G79V          -0.167
44              K73L          -0.064
45              R29L            0.01
46              K71A           0.022
47              R29E          -0.152
48              D36P          -0.459
49              V67G          -0.639
50              R51A          -0.145
51              Q60E          -0.021
52              G61E          -0.125
53              D58Q           0.041
54              Q60N          -0.353
55              Y37N          -0.401
56              D58I          -0.007
57              I68E          -0.152
58              V50I          -0.524
59              K76C           0.003
60              L27H          -0.284
61              P44E          -0.141
62              K34G          -0.357
63              M33S           0.195
64              R29G          -0.238
65              V50W          -0.903
66              E62W           -1.32
67              V69C          -0.159
68              F64D           -0.17
69              R29I           -0.88
70              L72C          -0.713
71              E62K          -0.798
72              T45Y           -1.11
73              D30H           0.045
74              E62S          -0.627
75              L54Y          -0.814
76              S48H           -0.47
77              T42M           0.012
78              G79R          -0.282
79              D58P           0.172
80              K66T          -0.187
81              R51V          -0.273
82              K43D           -1.06
83              D58M          -0.033
84              E62F          -0.741
85              Q52H          -0.493
86              S48V          -0.534
87              Q70G          -0.144
88              V40D          -0.754
89              K66M          -0.192
90              S22Q          -0.796
91              R29S          -0.297
